Ref: patent US6479480B1

endpoint-name: melting point (°C)
Kindly provide the numeric value in °C only, without the unit symbol.

These solved cases illustrate the format of a correct answer.
>>> df
                                   compound  endpoint_name  val
0  CN1CCC[C@H]1Cc1c(-c2ccccc2)[nH]c2ccccc12  melting point  133
1  CN1CCNC[C@@H]1Cc1c(-c2cccc(F)c2)[nH]c2cc(F)ccc12.Cl.Cl  melting point  200
2  CN1C2CCC(C2)C1Cc1c(-c2ccccc2)[nH]c2ccccc12.Cl (stereo not drawn)  melting point  176
3  CN1CCCC[C@H]1Cc1c(-c2ccccc2)[nH]c2ccccc12  melting point  135
4  COCCN1CCCCC1Cc1c(-c2ccccc2)[nH]c2ccccc12.O=C(O)C(=O)O (stereo not drawn)  melting point  185

IN: If you can, please state the reported melting point value of CCN1CCCCC1Cc1c(-c2ccccc2)[nH]c2ccccc12.O=C(O)C(=O)O (stereo not drawn) .
OUT: 197

IN: If you can, please state the reported melting point value of C[C@@H]1CC[C@H](Cc2c(-c3ccccc3)[nH]c3ccccc23)N1C.O=C(O)C(=O)O (relative stereo) .
OUT: 183

IN: If you can, please state the reported melting point value of CN1C2CCC(CC2)C1Cc1c(-c2ccccc2)[nH]c2ccccc12.O=C(O)C(=O)O (stereo not drawn) .
OUT: 193

IN: If you can, please state the reported melting point value of `CN1CCN(C)[C@@H](Cc2c(-c3ccccc3)[nH]c3ccccc23)C1.Cl.Cl` .
OUT: 253

----------
Entries and their melting point
Kindly provide the numeric value in °C only, without the unit symbol.

These solved cases illustrate the format of a correct answer.
                                   compound  val
0  O=C(O)C(=O)O.c1ccc(CCN2CCCCC2Cc2c(-c3ccccc3)[nH]c3ccccc23)cc1 (stereo not shown)  232
1  CN1CCN(C)[C@@H](Cc2c(-c3ccccc3)[nH]c3c(Cl)cccc23)C1.Cl.Cl  260

IN: If you can, please state the reported melting point value of O=C(O)C(=O)O.c1ccc(CN2CCCC2Cc2c(-c3ccccc3)[nH]c3ccccc23)cc1 (stereo not shown) .
OUT: 210

IN: If you can, please state the reported melting point value of CN1CCN[C@@H](Cc2c(-c3cccc(F)c3)[nH]c3cc(F)ccc23)C1.Cl.Cl (hydrate or solvate) .
OUT: 228

----------
Assign Yes to entries whose melting point meets or exceeds 100 °C; assign No to the rest.

Worked examples, 2 molecules total:
                                   molecule  classification
0  O=C(O)C(=O)O.c1ccc(CN2CCCCC2Cc2c(-c3ccccc3)[nH]c3ccccc23)cc1 (stereo not drawn)             Yes
1  O=C(O)C(=O)O.c1ccc(CCN2CCCC2Cc2c(-c3ccccc3)[nH]c3ccccc23)cc1 (stereo not drawn)             Yes

IN: Check the entry CN1CCCC[C@@H]1Cc1c(-c2ccccc2)[nH]c2ccccc12 (hydrate or solvate) : does melting point equal or exceed 100 °C?
OUT: Yes

----------
Criterion met if melting point is below 100 °C. Criterion not met if not; exact matches included in Criterion not met.

Worked examples, 4 compounds total:
>>> print(df.to_string())
                                   compound     classification
0  O=C(O)C(=O)O.c1ccc(CN2CCC(Cc3c(-c4ccccc4)[nH]c4ccccc34)C2)cc1 (stereo not drawn)      Criterion met
1  CN1CCCC(Cc2c(-c3ccccc3)[nH]c3ccccc23)C1.O=C(O)C(=O)O (stereo not drawn) (hydrate or solvate)  Criterion not met
2  CN1CCC(Cc2c(-c3ccccc3)[nH]c3ccccc23)C1.O=C(O)C(=O)O (stereo not drawn)      Criterion met
3  CN1CCC[C@@H]1Cc1c(-c2ccccc2)[nH]c2ccccc12  Criterion not met

IN: melting point strictly < 100 °C for this compound? O=C(O)C(=O)O.c1ccc(CCN2CCCC(Cc3c(-c4ccccc4)[nH]c4ccccc34)C2)cc1 (stereo not drawn) (hydrate or solvate)
OUT: Criterion not met
